These data points were gathered from the supplement of paper PMC10567573.

B1: CCNC (parent)
chain: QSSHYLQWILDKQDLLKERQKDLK

- Variants of: B1
- test-name: protein stability index of a GFP-peptide fusion (GPS, HEK-293T) (PSI 1-6); higher = more stable;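 also: lentivirally expressed fusions sorted by FACS into six bins by GFP to DsRed ratio, PSI derived from sequencing read proportions per bin multiplied by bin number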
- condition-notes: c terminus: a fixed tail appended
Response key: yes means protein stability index >= 3; no means protein stability index < 3.

Input line: Could you tell me if the measured protein stability index of K12T reaches 3 or more?
Output line: no

Input line: Could you tell me if the measured protein stability index of W8G reaches 3 or more?
Output line: yes

Input line: Could you tell me if the measured protein stability index of Q20M reaches 3 or more?
Output line: no

Input line: Could you tell me if the measured protein stability index of D14S reaches 3 or more?
Output line: no

Input line: Could you tell me if the measured protein stability index of D14W reaches 3 or more?
Output line: no

Input line: Could you tell me if the measured protein stability index of K12M reaches 3 or more?
Output line: no

Input line: Could you tell me if the measured protein stability index of R19E reaches 3 or more?
Output line: yes

Input line: Could you tell me if the measured protein stability index of Q7Y reaches 3 or more?
Output line: no

Input line: Could you tell me if the measured protein stability index of K12Y reaches 3 or more?
Output line: no

Input line: Could you tell me if the measured protein stability index of Q7W reaches 3 or more?
Output line: no

Input line: Could you tell me if the measured protein stability index of L10N reaches 3 or more?
Output line: yes

Input line: Could you tell me if the measured protein stability index of K21T reaches 3 or more?
Output line: yes

Input line: Could you tell me if the measured protein stability index of D11T reaches 3 or more?
Output line: no

Input line: Could you tell me if the measured protein stability index of S2R reaches 3 or more?
Output line: no

Input line: Could you tell me if the measured protein stability index of H4L reaches 3 or more?
Output line: no

Input line: Could you tell me if the measured protein stability index of L6R reaches 3 or more?
Output line: yes

Input line: Could you tell me if the measured protein stability index of Q13N reaches 3 or more?
Output line: yes

Input line: Could you tell me if the measured protein stability index of I9L reaches 3 or more?
Output line: yes

Input line: Could you tell me if the measured protein stability index of Q20H reaches 3 or more?
Output line: yes

Input line: Could you tell me if the measured protein stability index of I9A reaches 3 or more?
Output line: yes

Input line: Could you tell me if the measured protein stability index of D11H reaches 3 or more?
Output line: no

Input line: Could you tell me if the measured protein stability index of W8Q reaches 3 or more?
Output line: yes

Input line: Could you tell me if the measured protein stability index of H4S reaches 3 or more?
Output line: yes

Input line: Could you tell me if the measured protein stability index of D22R reaches 3 or more?
Output line: yes

Input line: Could you tell me if the measured protein stability index of H4W reaches 3 or more?
Output line: no

Input line: Could you tell me if the measured protein stability index of E18M reaches 3 or more?
Output line: no

Input line: Could you tell me if the measured protein stability index of H4P reaches 3 or more?
Output line: no

Input line: Could you tell me if the measured protein stability index of Q7G reaches 3 or more?
Output line: yes

Input line: Could you tell me if the measured protein stability index of S3I reaches 3 or more?
Output line: no

Input line: Could you tell me if the measured protein stability index of Y5W reaches 3 or more?
Output line: no

Input line: Could you tell me if the measured protein stability index of L23N reaches 3 or more?
Output line: yes

Input line: Could you tell me if the measured protein stability index of E18Y reaches 3 or more?
Output line: no

Input line: Could you tell me if the measured protein stability index of L16T reaches 3 or more?
Output line: yes

Input line: Could you tell me if the measured protein stability index of K21F reaches 3 or more?
Output line: no

Input line: Could you tell me if the measured protein stability index of L15Y reaches 3 or more?
Output line: no

Input line: Could you tell me if the measured protein stability index of Q1C reaches 3 or more?
Output line: yes
